- Test system: SK-BR-3 cells
- MEASUREMENT_PROTOCOL: Measurement of cell growth inhibition (crystal violet staining method)
- Format: cell-based
- SETUP_CONDITIONS: Homo sapiens; breast cancer SK-BR-3 cells, 72 hr culture with test substance
Could you mark each record yes if its IC50 falls strictly under 200 nM, and no if it equals or exceeds it?

| MOLECULE | LABEL_CLASS |
| --- | --- |
| CC(C)Nc1cc(-n2nc(C(C)C)c3c(-n4cnc(-c5cnn(C)c5)c4)ccnc32)ccc1C(N)=O | yes |
| NC(=O)c1ccc(-n2nc(C(F)(F)F)c3c(-n4cnc(-c5cccnc5)c4)ccnc32)c(NC2CCCC2)c1 | yes |
| CCNc1cc(C(N)=O)ccc1-n1nc(C(F)(F)F)c2c(-n3cnc(-c4cccnc4)c3)ccnc21 | yes |
| Cc1cn(-c2ccc(C(N)=O)c(NC3CCC(O)CC3)c2)c2nccc(-n3cnc(-c4ccccc4)c3)c12 (stereo not shown) | yes |
| CCn1cc(-c2cn(-c3ccnc4c3c(C(C)C)nn4-c3ccc(C(N)=O)cc3Cl)cn2)cn1 | no |
| CC(C)c1nn(-c2ccc(C(N)=O)cc2CN(C)C)c2nccc(-n3cnc(-c4cnn(C)c4)c3)c12 | no |
| CC(C)c1nn(-c2ccc(C(N)=O)c(NCCN3CCCC3)c2)c2nccc(-c3cnc4ccccc4c3)c12 | yes |

###

- TESTED_SYSTEM: human HSP90 alpha protein (HSP90 N-terminal protein, amino acids 2-236) (Homo sapiens (Human), UniProt P07900)
- MEASUREMENT_PROTOCOL: Measurement of HSP90-binding activity (AlphaScreen competitive assay, biotin-labeled geldanamycin)
- SETUP_CONDITIONS: concentration inhibiting binding of biotin-labeled geldanamycin (40 nM) to purified HSP90 to 50% of control; read-out: HSP-binding activity IC50
pIC50: −log10 of the molar value.
READOUT_NAME: pIC50

| COMPOUND | READOUT_NAME | ENDPOINT_VALUE |
| --- | --- | --- |
| Cn1cc(-c2cn(-c3ccnc4c3c(C(F)(F)F)nn4-c3ccc(C(N)=O)cc3F)cn2)cn1 | pIC50 | 7.00 |
| CCc1cn(-c2ccc(C(N)=O)c(NC3CCCCC3N)c2)c2nccc(-c3cnc4ccccc4c3)c12 (stereo not shown) | pIC50 | 6.64 |
| CC(C)c1nn(-c2ccc(C(N)=O)c(NC3CCC(O)CC3)c2)c2nccc(-n3cnc(-c4ccoc4)c3)c12 (stereo not shown) | pIC50 | 6.64 |
| CCNc1c(C(N)=O)ccc(-n2nc(C(C)C)c3c(-n4cnc(-c5cnn(C)c5)c4)ccnc32)c1CC | pIC50 | 6.80 |

###

- System: SK-BR-3 cells
- MEASUREMENT_PROTOCOL: Measurement of cell growth inhibition (crystal violet staining method)
- Assay type: cell-based
- SETUP_CONDITIONS: Homo sapiens; breast cancer SK-BR-3 cells, 72 hr culture with test substance
pIC50: −log10 of the molar value.

| COMPOUND | pIC50 |
| --- | --- |
| CC(C)Nc1cc(C(N)=O)ccc1-n1nc(C(C)C)c2c(-n3cnc(-c4cnn(C)c4)c3)ccnc21 | 6.85 |
| CCc1c(-n2nc(C(C)C)c3c(-n4cnc(-c5cnn(C)c5)c4)ccnc32)ccc(C(N)=O)c1N | 6.96 |
| CC(C)c1nn(-c2ccc(C(N)=O)c(NC3CCC(O)CC3)c2)c2nccc(-n3cnc(-c4ccco4)c3)c12 (stereo not shown) | 6.64 |
| CC(C)c1nn(-c2ccc(C(N)=O)c(NC3CCC(O)CC3)c2)c2nccc(-n3cnc(-c4cn[nH]c4)c3)c12 (stereo not shown) | 7.70 |
| CC(C)c1nn(-c2ccc(C(N)=O)cc2C2CC2)c2nccc(-n3cnc(-c4cnn(C)c4)c3)c12 | 6.60 |
| CC(C)c1nn(-c2ccc(C(N)=O)cc2Cl)c2nccc(-n3cnc(-c4cnn(C)c4)c3)c12 | 6.16 |
| CCc1cn(-c2ccc(C(N)=O)c(N[C@H]3CC[C@H](N)CC3)c2)c2nccc(-c3cnc4ccccc4c3)c12 | 6.96 |

###

- Tested on: SK-BR-3 cells
- MEASUREMENT_PROTOCOL: Measurement of cell growth inhibition (crystal violet staining method)
- Format: cell-based
- SETUP_CONDITIONS: Homo sapiens; breast cancer SK-BR-3 cells, 72 hr culture with test substance
pIC50: −log10 of the molar value.

| SUBSTANCE_SMILES | TESTED_SYSTEM | pIC50 |
| --- | --- | --- |
| CCc1cn(-c2ccc(C(N)=O)c(NCCN3CCOCC3)c2)c2nccc(-c3cnc4ccccc4c3)c12 | SK-BR-3 cells | 6.44 |
| Cn1cc(-c2cn(-c3ccnc4c3c(C(F)(F)F)nn4-c3ccc(C(N)=O)cc3Cl)cn2)cn1 | SK-BR-3 cells | 6.62 |
| CCc1nn(-c2ccc(C(N)=O)c(N[C@H]3CC[C@H](O)CC3)c2)c2nccc(-c3cnc4ccccc4c3)c12 | SK-BR-3 cells | 7.70 |
| COc1cc(C(N)=O)ccc1-n1nc(C(C)C)c2c(-n3cnc(-c4cnn(C)c4)c3)ccnc21 | SK-BR-3 cells | 6.82 |
| CC(C)c1nn(-c2ccc(C(N)=O)c(N[C@H]3CC[C@H](O)CC3)c2)c2nccc(-n3ccnc3)c12 | SK-BR-3 cells | 5.49 |
| C=Cc1cc(C(N)=O)ccc1-n1nc(C(C)C)c2c(-n3cnc(-c4cnn(C)c4)c3)ccnc21 | SK-BR-3 cells | 6.54 |
| Cc1cc(C(N)=O)ccc1-n1nc(C(F)(F)F)c2c(-n3cnc(-c4cccnc4)c3)ccnc21 | SK-BR-3 cells | 6.54 |

###

- Test system: SK-BR-3 cells
- MEASUREMENT_PROTOCOL: Measurement of cell growth inhibition (crystal violet staining method)
- Type: cell-based
- SETUP_CONDITIONS: Homo sapiens; breast cancer SK-BR-3 cells, 72 hr culture with test substance
Kindly apply the following: true if IC50 is less than 80 nM, false in every other case.

| COMPOUND | LABEL_CLASS |
| --- | --- |
| CC(C)c1nn(-c2ccc(C(N)=O)c(NC3CCC(O)CC3)c2)c2nccc(-n3cnc(-c4cnn(CCOCc5ccccc5)c4)c3)c12 (stereo not shown) | false |
| Cc1nn(-c2ccc(C(N)=O)c(N[C@H]3CC[C@H](O)CC3)c2)c2nccc(-c3cnc4ccccc4c3)c12 | true |
| CCNc1cc(-n2nc(C(C)C)c3c(-n4cnc(-c5cnn(C(F)F)c5)c4)ccnc32)ccc1C(N)=O | false |
| CC(C)c1nn(-c2ccc(C(N)=O)c(Nc3ccc(C(=O)N4CCCC4)cc3)c2)c2nccc(-c3cnc4ccccc4c3)c12 | true |
| CCNc1cc(C(N)=O)ccc1-n1nc(C(F)(F)F)c2c(-n3cnc(-c4cnn(CC)c4)c3)ccnc21 | false |

###

- TESTED_SYSTEM: human HSP90 alpha protein (HSP90 N-terminal protein, amino acids 2-236) (Homo sapiens (Human))
- MEASUREMENT_PROTOCOL: Measurement of HSP90-binding activity (AlphaScreen competitive assay, biotin-labeled geldanamycin)
- SETUP_CONDITIONS: concentration inhibiting binding of biotin-labeled geldanamycin (40 nM) to purified HSP90 to 50% of control; read-out: HSP-binding activity IC50
pIC50: −log10 of the molar value.
READOUT_NAME: pIC50

| COMPOUND | READOUT_NAME | ENDPOINT_VALUE |
| --- | --- | --- |
| Cc1cn(-c2ccc(C(N)=O)c(N[C@H]3CC[C@H](O)CC3)c2)c2nccc(-c3cnc4ccccc4c3)c12 | pIC50 | 6.57 |
| NC(=O)c1ccc(-n2nc(C(F)(F)F)c3c(-n4cnc(-c5cccnc5)c4)ccnc32)c(N)c1 | pIC50 | 6.57 |
| CCc1cn(-c2ccc(C(N)=O)c(NCCN3CCOCC3)c2)c2nccc(-c3cnc4ccccc4c3)c12 | pIC50 | 6.23 |
| NC(=O)c1ccc(-n2nc(C(F)(F)F)c3c(-n4cnc(-c5cccnc5)c4)ccnc32)c(NC2CCC2)c1 | pIC50 | 6.70 |
| CC(C)c1nn(-c2ccc(C(N)=O)c(NC3CCC(O)CC3)c2)c2nccc(-n3cnc(-n4ccnc4)c3)c12 (stereo not shown) | pIC50 | 6.89 |
| CC(C)c1nn(-c2ccc(C(N)=O)c(NCc3ccccc3)c2)c2nccc(-c3cnc4ccccc4c3)c12 | pIC50 | 5.52 |
| CC(C)Nc1cc(C(N)=O)ccc1-n1nc(C(C)C)c2c(-n3cnc(-c4cnn(C)c4)c3)ccnc21 | pIC50 | 6.70 |

###

- Test system: SK-BR-3 cells
- MEASUREMENT_PROTOCOL: Measurement of cell growth inhibition (crystal violet staining method)
- Format: cell-based
- SETUP_CONDITIONS: Homo sapiens; breast cancer SK-BR-3 cells, 72 hr culture with test substance

| MOLECULE | TESTED_SYSTEM | UNIT_INFO | INEQUALITY_SYMBOL | IC50 |
| --- | --- | --- | --- | --- |
| CC(C)c1nn(-c2ccc(C(N)=O)c(N[C@H]3CC[C@H](O)CC3)c2)c2nccc(-c3cnc4[nH]ccc4c3)c12 | SK-BR-3 cells | nM | = | 150 |
| NC(=O)c1ccc(-n2nc(C(F)(F)F)c3c(-n4cnc(-c5cccnc5)c4)ccnc32)cc1N | SK-BR-3 cells | nM | = | 410 |
| NC(=O)c1ccc(-n2nc(C(F)(F)F)c3c(-c4cnc5ccccc5c4)ccnc32)cc1N[C@H]1CC[C@H](O)CC1 | SK-BR-3 cells | nM | = | 20 |
| CC(C)c1nn(-c2ccc(C(N)=O)c(NC3CCN(C(=O)c4cc(O)nc(O)n4)CC3)c2)c2nccc(-c3cnc4ccccc4c3)c12 | SK-BR-3 cells | nM | = | 650 |
| CC(C)c1nn(-c2ccc(C(N)=O)c(NCCc3ccccn3)c2)c2nccc(-c3cnc4ccccc4c3)c12 | SK-BR-3 cells | nM | = | 280 |
| CCc1c(-n2nc(C(C)C)c3c(-n4cnc(-c5cnn(C)c5)c4)ccnc32)ccc(C(N)=O)c1F | SK-BR-3 cells | nM | = | 920 |
| CC(C)c1nn(-c2ccc(C(N)=O)c(N)c2)c2nccc(-n3cnc(-c4cnn(C)c4)c3)c12 | SK-BR-3 cells | nM | = | 650 |
| Cn1cc(-c2cn(-c3ccnc4c3c(C(F)(F)F)nn4-c3ccc(C(N)=O)cc3NC3CCCC3)cn2)cn1 | SK-BR-3 cells | nM | = | 110 |
| CC(C)c1nn(-c2ccc(C(N)=O)c(N[C@H]3CC[C@H](O)CC3)c2)c2nccc(-c3cnc4c(ccn4C)c3)c12 | SK-BR-3 cells | nM | = | 180 |
| Cc1cc(-n2nc(C(C)C)c3c(-c4cnc5ccccc5c4)ccnc32)ccc1C(N)=O | SK-BR-3 cells | nM | = | 630 |
| CC(C)c1nn(-c2ccc(C(N)=O)cc2Cl)c2nccc(-n3cnc(-c4ccc(C(=O)N(C)C)cc4)c3)c12 | SK-BR-3 cells | nM | = | 1540 |
| CCc1cn(-c2ccc(C(N)=O)c(NCCCCO)c2)c2nccc(-c3cnc4ccccc4c3)c12 | SK-BR-3 cells | nM | = | 270 |
| Cc1cc(C(N)=O)ccc1-n1nc(C(C)C)c2c(-n3cnc(-c4cnn(C)c4)c3)ccnc21 | SK-BR-3 cells | nM | = | 300 |
| Cn1cc(-c2cn(-c3ccnc4c3c(C(F)(F)F)nn4-c3ccc(C(N)=O)cc3NCC(F)F)cn2)cn1 | SK-BR-3 cells | nM | = | 80 |
| CC(C)c1nn(-c2ccc(C(N)=O)c(N[C@H]3CC[C@H](O)CC3)c2)c2nccc(-c3cnc4c(c3)CCCC4)c12 | SK-BR-3 cells | nM | = | 470 |
| Cc1cn(-c2ccc(C(N)=O)c(NCCCNC(C)C)c2)c2nccc(-c3cnc4ccccc4c3)c12 | SK-BR-3 cells | nM | = | 1530 |
| CCNCCNc1cc(-n2cc(CC)c3c(-c4cnc5ccccc5c4)ccnc32)ccc1C(N)=O | SK-BR-3 cells | nM | = | 240 |
| COCCNc1cc(C(N)=O)ccc1-n1nc(C(F)(F)F)c2c(-n3cnc(-c4cnn(C)c4)c3)ccnc21 | SK-BR-3 cells | nM | = | 60 |
| CC(C)Nc1cc(-n2nc(C(C)C)c3c(-n4cnc(-c5cn[nH]c5)c4)ccnc32)ccc1C(N)=O | SK-BR-3 cells | nM | = | 30 |
| C=C(C)c1cc(C(N)=O)ccc1-n1nc(C(F)(F)F)c2c(-n3cnc(-c4cnn(C)c4)c3)ccnc21 | SK-BR-3 cells | nM | = | 380 |
| COc1cncc(-c2ccnc3c2c(C(C)C)nn3-c2ccc(C(N)=O)c(N[C@H]3CC[C@H](O)CC3)c2)c1 | SK-BR-3 cells | nM | = | 160 |
| COc1ccc2ccn(-c3ccc(C(N)=O)c(NC4CCC(O)CC4)c3)c2c1 (centres unmarked) [Comparative Example 1, reference compound] | SK-BR-3 cells | nM | > | 10000 |
| Cc1cn(-c2ccc(C(N)=O)c(NCC(C)(C)O)c2)c2nccc(-c3cnc4ccccc4c3)c12 | SK-BR-3 cells | nM | = | 210 |
| Cc1cc(C(N)=O)ccc1-n1nc(C(C)C)c2c(-n3cnc(-c4ccncc4)c3)ccnc21 | SK-BR-3 cells | nM | = | 690 |
| Cn1cc(-c2cn(-c3ccnc4c3c(C(F)(F)F)nn4-c3ccc(C(N)=O)cc3N)cn2)cn1 | SK-BR-3 cells | nM | = | 200 |
| CC(C)c1cc(C(N)=O)ccc1-n1nc(C(C)C)c2c(-n3cnc(-c4cnn(C)c4)c3)ccnc21 | SK-BR-3 cells | nM | = | 200 |
| CC(C)Nc1cc(-n2nc(C(F)(F)F)c3c(-n4cnc(-c5cccnc5)c4)ccnc32)ccc1C(N)=O | SK-BR-3 cells | nM | = | 70 |
| CC(C)c1nn(-c2ccc(C(N)=O)c(NCC(F)F)c2)c2nccc(-n3cnc(-c4cnn(C)c4)c3)c12 | SK-BR-3 cells | nM | = | 70 |
| CC(C)c1nn(-c2ccc(C(N)=O)c(NCCN(C)C)c2)c2nccc(-c3cnc4ccccc4c3)c12 | SK-BR-3 cells | nM | = | 130 |

Cited source: patent US8779142B2
